System: CP252
experimental_details: qHTS profiling for inhibitors of Plasmodium falciparum proliferation (AID 504749); note: nearly all actives have a fitted effect of over 60% in size; note: potency is the fitted concentration of half-maximal effect
test_parameters: P. falciparum in erythrocytes, SYBR Green DNA, 72 h; series mostly up to 28.7 µM
Inconclusive results are not listed. The source made the active and inactive calls. Calls come from the whole dose curve; as a rule, active = well fitted inhibition curve with a large enough effect; inconclusive = small, poorly fitted or top-dose-only effect; inactive = flat fitted curve, though single readings scatter.
experimental_readout: Potency

molecule | target_or_system | result
N[C@H](Cc1ccc(O)c(O)c1)C(=O)O | CP252 | inactive
COc1cc2c(cc1OC)C(c1ccccc1)CN(C)CC2 (configuration not stated) | CP252 | inactive
CN1C[C@H](C(=O)N[C@]2(C)O[C@@]3(O)C4CCCN4C(=O)[C@H](Cc4ccccc4)N3C2=O)C[C@@H]2c3cccc4[nH]cc(c34)C[C@H]21 (some centres not stated) | CP252 | 6.31 µM (active)
CC(/C=C1\SC(=S)N(CC(=O)O)C1=O)=C\c1ccccc1 | CP252 | inactive
COc1ccc(CCNC[C@@H](O)c2ccc(O)cc2)cc1OC | CP252 | inactive
C[C@@]12C(=O)OC(=O)[C@]1(C)[C@H]1CC[C@@H]2O1 | CP252 | 3.98 µM (active)
CN1C(=O)CCC1c1cccnc1 (configuration not stated) | CP252 | inactive
